This section lists GI50 readings for HOP-62 NSCLC.

In: GI50 lookup needed for `Cn1nnnc1[N-]Cc1ccccc1.[Au+].c1ccc([PH+](c2ccccc2)c2ccccc2)cc1` , thanks.
Out: 16 µM

In: Any idea what its GI50 is? The compound is `CCOC(=O)/C=C/c1ccc(C(=O)OCC)[nH]1`
Out: 7.14 µM

In: So what does the record say about GI50 for `CCCCc1cc(O)ccc1O` ?
Out: 53.7 µM

In: Any idea what GI50 was measured for `CCc1ccc(C2=C(O)C(=O)C(c3ccc(CC)cc3)=C(O)C2=O)cc1` ?
Out: 1.5 µM

In: Item `Cc1ccc(-c2cc3nc(-c4ccccc4)nc(C(Cl)Cl)n3n2)cc1` has what recorded GI50?
Out: 0.666 µM

In: Reported GI50 for `CCOC(=O)/C(C1=CC(=O)C(=O)c2ccccc21)=C(/C)NCc1ccccc1` : what is it?
Out: 1.56 µM

In: So what's the measured GI50 for this one? `O=C(N/N=C/c1ccc(F)cc1)c1[nH]c2ccc(I)cc2c1-c1ccccc1`
Out: 0.577 µM

In: Give the measured GI50 of `CC/C=C\C[C@H](O)C/C=C1/C(=O)C=C[C@@H]1C/C=C\CCCC(N)=O` .
Out: 2.99 µM

In: Name the reported GI50 value associated with the compound C=C1C(O)C2C(=C(CC(C)C)C13CC3)C(=O)C(C)(C)C2OC (stereo not drawn)
Out: > 100 µM

In: Requested field: GI50. Item: `O=C1NC(=O)C(c2ccccc2Cl)=C1Nc1cccc(O)c1`
Out: 3.89 µM

In: // GI50 lookup, key: `Cc1ccc(N2C(=O)C(Cl)=C(Nc3cccc(O)c3)C2=O)cc1Cl`
Out: 17.7 µM

In: # get_value(readout='GI50', item= `NC(N)=N/N=C/c1c(-c2cc(Cl)sc2Cl)nc2n1CCS2` )
Out: 8.87 µM

In: I am curious: what GI50 value has been reported for `CN(C)CCNc1cccc2sc3ccc(O)cc3c(=O)c12` ?
Out: 2.29 µM
